FYI, the data here is from the RNAGym collection of RNA variant scans (doi:10.7554/elife.90254).

B1: LINE1-mini (parent)
chain: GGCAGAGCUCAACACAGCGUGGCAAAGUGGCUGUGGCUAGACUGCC

- Variants of: B1
- test name: self-cleavage, relative activity (ratio to wild type); higher = more cleavage; in vitro, sequencing; the parent is a self-cleaving ribozyme
Label Not fulfilled if self-cleavage falls below 0.1; label Fulfilled in every other case.

mutant name: C13G C46A
class: Fulfilled
--
mutant name: G5U A26C
class: Fulfilled
--
mutant name: C23A G27A
class: Fulfilled
--
mutant name: C31U A41U
class: Fulfilled
--
mutant name: C15A A41C
class: Fulfilled
--
mutant name: C3G U38G
class: Not fulfilled
--
mutant name: G21U A24C
class: Fulfilled
--
mutant name: C3G U32A
class: Not fulfilled
--
mutant name: G35C G44C
class: Not fulfilled
--
mutant name: C10G C42A
class: Not fulfilled
